pIC50: −log10 of the molar value.
Compiled record: pIC50 values for DGKα (Homo sapiens) across several sources.
Reported property: pIC50

Known results for molecules:
| Molecule | Reported property | Val |
| --- | --- | --- |
| Cc1ccc(C(C)N2C[C@H](C)N(c3cc(=O)n(C)c4c3nc(CC#N)n4C)C[C@H]2C)cc1 (single isomer, unassigned) | pIC50 | 5.24 |
| CC[C@H]1CN(C(C)c2ccc(F)cc2Cl)[C@H](CC)CN1c1cc(=O)n(C)c2cn(CC#N)nc12 (stereo partly shown) | pIC50 | 5.24 |
| CCn1c(CC#N)nc2c(N3C[C@@H](C)N(C(C)c4ccc5c(c4)OC(C)(C)C5=O)C[C@@H]3C)nc(=O)n(C)c21 (stereo partly shown) | pIC50 | 4.16 |

[a] Cc1nc2ccc(C(C)N3C[C@H](C)N(c4cc(=O)n(C)c5cn(CC#N)nc45)C[C@H]3C)cc2nc1C (stereo partly shown)
[b] CC[C@H]1CN(C(c2ccc(F)cc2)c2ccc(F)cc2OC)[C@H](CC)CN1c1cc(=O)n(C)c2cn(CC#N)nc12 (stereo partly shown)
[c] CC[C@H]1CN(C(C)c2ccc3scnc3c2)[C@H](CC)CN1c1cc(=O)n(C)n2cc(CC#N)nc12 (stereo partly shown)
[d] CC[C@H]1CN(C(C)c2cnc(OC(C)C)cc2F)[C@H](CC)CN1c1cc(=O)n(C)c2cn(CC#N)nc12 (stereo partly shown)
[e] CCn1c(CC#N)nc2c(N3C[C@@H](C)N(C(C)c4ccc5c(c4F)OC(C)(C)O5)C[C@@H]3C)nc(=O)n(C)c21 (stereo partly shown)
-- ask I would appreciate it if you could sort these 5 molecules by pIC50, starting from the smallest number. Give the labels in the order specified.
-- reply a, e, d, b, c
(a: 4.16, e: 4.65, d: 5.23, b: 5.92, c: 7.44)

[P] CCc1cc(F)ccc1C(C)N1C[C@H](CC)N(c2cc(=O)n(C)c3cn(CC#N)nc23)C[C@H]1CC (stereo partly shown)
[Q] CC[C@H]1CN(C(C)c2cc3ccccc3n2CC)[C@H](CC)CN1c1cc(=O)n(C)c2cn(CC#N)nc12 (stereo partly shown)
-- ask Task for the reader: decide whether P or Q has the larger pIC50. I would appreciate it if you answered with the label of your choice.
-- reply Q
(Q: 5.25, P: 4.20)

* * *

pIC50: −log10 of the molar value.
Compiled record: pIC50 values for DGKα (Homo sapiens, UniProt P23743) across several sources.
Reported property: pIC50

| Molecule | Val |
| --- | --- |
| COC(F)(c1nnc(-c2ccc3c(c2)N(Cc2ccc(-c4noc(C(F)(F)F)n4)cc2)C(=O)[C@@H](N)CS3(=O)=O)o1)C(F)(F)F (stereo partly shown) | 5.70 |

[I] CC(c1ccc2nccnc2c1)N1C[C@H](C)N(c2cc(=O)n(C)c3cn(S(C)(=O)=O)nc23)C[C@H]1C (stereo partly shown)
[II] CC[C@H]1CN(C(C)c2cc(C)c(C)cn2)[C@H](CC)CN1c1cc(=O)n(C)c2cn(CC#N)nc12 (stereo partly shown)
[III] CC[C@H]1CN(C(C)c2ccc(C(C)(C)C#N)nc2)[C@H](CC)CN1c1cc(=O)n(C)n2cc(CC#N)nc12 (stereo partly shown)
-- ask Reorder: pIC50, max to min. Give the labels in the order specified.
-- reply III, II, I
